Provenance of the data: ChEMBL document CHEMBL1124237

Measured Ki (Thymidylate synthase (Lactobacillus casei, UniProt P00469))
Numbers only; they are read as µM.

In the examples that follow, each entry is paired with its recorded Ki.
N#Cc1ccc(-c2cn([C@H]3C[C@H](O)[C@@H](COP(=O)(O)O)O3)c(=O)[nH]c2=O)cc1
8.75
O=c1[nH]c(=O)n([C@H]2C[C@H](O)[C@@H](COP(=O)(O)O)O2)cc1-c1ccc(C(F)(F)F)cc1
4.93

Consider the molecule COc1ccc(-c2cn([C@H]3C[C@H](O)[C@@H](COP(=O)(O)O)O3)c(=O)[nH]c2=O)cc1 and give its measured Ki.
1.21

Then O=c1[nH]c(=O)n([C@H]2C[C@H](O)[C@@H](COP(=O)(O)O)O2)cc1-c1ccc(Br)cc1 ?
1.81

====

Biological target: Thymidylate synthase (Homo sapiens)
Sequence (P04818 whole entry): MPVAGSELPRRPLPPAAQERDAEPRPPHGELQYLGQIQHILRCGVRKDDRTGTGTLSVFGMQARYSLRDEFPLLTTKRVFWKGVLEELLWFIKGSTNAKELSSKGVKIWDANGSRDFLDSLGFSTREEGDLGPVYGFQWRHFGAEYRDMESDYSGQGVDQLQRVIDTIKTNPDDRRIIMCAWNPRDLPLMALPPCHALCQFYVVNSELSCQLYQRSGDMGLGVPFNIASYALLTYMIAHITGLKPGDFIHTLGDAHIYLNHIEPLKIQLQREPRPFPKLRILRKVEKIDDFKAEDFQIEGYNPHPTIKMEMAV
VALUE_KIND: Ki (µM)
Numbers only; they are read as µM.

Consider the compound N#Cc1ccc(-c2cn([C@H]3C[C@H](O)[C@@H](COP(=O)(O)O)O3)c(=O)[nH]c2=O)cc1 and give its measured Ki.
114

====

Target: Thymidylate synthase (Mus musculus, UniProt P07607)
Sequence (P07607 whole entry): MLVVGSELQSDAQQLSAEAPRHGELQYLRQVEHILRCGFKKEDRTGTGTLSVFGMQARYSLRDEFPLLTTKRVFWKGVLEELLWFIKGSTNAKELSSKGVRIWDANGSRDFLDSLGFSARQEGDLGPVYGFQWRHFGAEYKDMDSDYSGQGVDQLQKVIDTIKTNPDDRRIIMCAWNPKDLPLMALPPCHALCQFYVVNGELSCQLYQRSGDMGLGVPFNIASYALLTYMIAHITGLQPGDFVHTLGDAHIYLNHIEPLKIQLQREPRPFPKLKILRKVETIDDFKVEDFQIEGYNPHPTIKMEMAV
VALUE_KIND: pKi
Please keep in mind that pKi is minus log10 of the molar concentration; only the number is needed.

O=c1[nH]c(=O)n([C@H]2C[C@H](O)[C@@H](COP(=O)(O)O)O2)cc1-c1ccc(C(F)(F)F)cc1
4.03
Cc1ccc(-c2cn([C@H]3C[C@H](O)[C@@H](COP(=O)(O)O)O3)c(=O)[nH]c2=O)cc1
5.08

Please look at the following compound next.
Consider the compound N#Cc1ccc(-c2cn([C@H]3C[C@H](O)[C@@H](COP(=O)(O)O)O3)c(=O)[nH]c2=O)cc1 and give its measured pKi.
4.01

====

Measured Ki (Thymidylate synthase (Mus musculus))
Numbers only; they are read as µM.

O=c1[nH]c(=O)n([C@H]2C[C@H](O)[C@@H](COP(=O)(O)O)O2)cc1-c1ccc(OCc2ccccc2)cc1
11.2
O=c1[nH]c(=O)n([C@H]2C[C@H](O)[C@@H](COP(=O)(O)O)O2)cc1-c1ccccc1
12.2
O=c1[nH]c(=O)n([C@H]2C[C@H](O)[C@@H](COP(=O)(O)O)O2)cc1-c1ccc(O)cc1
179
NC(=O)c1ccc(-c2cn([C@H]3C[C@H](O)[C@@H](COP(=O)(O)O)O3)c(=O)[nH]c2=O)cc1
113

Please look at the following compound next.
Which Ki is reported with Thymidylate synthase (Mus musculus) for this entry: COC(=O)c1ccc(-c2cn([C@H]3C[C@H](O)[C@@H](COP(=O)(O)O)O3)c(=O)[nH]c2=O)cc1 ?
46.1
